Target: PDZRN4_1, Q6ZMN7
Sequence (Q6ZMN7 213-318): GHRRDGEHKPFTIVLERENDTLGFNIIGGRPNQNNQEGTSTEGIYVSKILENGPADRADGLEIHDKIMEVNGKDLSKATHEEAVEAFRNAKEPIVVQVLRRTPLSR
Assay: holdup assay
Parameters: key: below the threshold = too weak to quantify, mostly under pKd 3.1 to 4
Settings: plain residues with an end cap or a label only (N-terminal biotin on a linker: ado-ado)
// values below are reported pKd
Please give the numeric answer without any surrounding text.

> print(dat)
                       binder  outcome.measure  number
1  AKADAQESRL [PLCB2, Q00722]              pKd     4.5

Which pKd is reported for this binder? TKEIPNCTSV [SORCS3, Q9UPU3] 3.94
